# Test Details: Binding affinity to rat CCR1 by radioligand binding assay
Readout Type: pKd
Scale note: pKd = -log10(concentration in M).

Ask | Data request, read-out pKd, for C[C@@H]1CN(Cc2ccc(F)cc2)CCN1C(=O)COc1ccc(Cl)cc1NC(N)=O [BX 471 FREE BASE]
Reply | 6.92

---

# Test Details: Half life in beagle dog
# Format: ADME, organism-based, Canis lupus familiaris
# Settings: in vivo
Readout Type: half-life (min)
Record the value in min, omitting the unit from your answer.

Ask | Data request, read-out half-life, for "COc1cccc2c1c(NS(=O)(=O)c1ccc(Cl)s1)nn2Cc1cccc(NC(=O)CO)c1"
Reply | 156

---

# Test Details: physchem
# Settings: octanol/water
# Description: Lipophilicity, log P of the compound
Response field label: string, one of true (logP strictly below 4) or false.

Ask | Is it true that logP reported for "Cc1nnc(C(C)C)n1[C@@H]1C[C@H]2CC[C@@H](C1)N2CC[C@H](NC(=O)C1CCC(F)(F)CC1)c1ccccc1" is less than 4?
Reply | false

Ask | Is it true that logP reported for "NC(=O)c1ccc(CNC(=O)NC[C@@H]2CN(Cc3ccc(Cl)c(Cl)c3)CCO2)cc1" is less than 4?
Reply | true

Ask | Is it true that logP reported for "CCOc1ccc(-n2c([C@@H](C)N(Cc3cccnc3)C(=O)Cc3ccc(OC(F)(F)F)cc3)nc3ncccc3c2=O)cc1" is less than 4?
Reply | true

Ask | Is it true that logP reported for "Cc1ccc(S(=O)(=O)NC(=O)N2CCC(N3CCC(Oc4ccc(Cl)c(Cl)c4)CC3)CC2)cc1" is less than 4?
Reply | true

Ask | Is it true that logP reported for "CC(C)(C)c1ccc(S(=O)(=O)Nc2ccc(Cl)cc2C(=O)c2cc[n+]([O-])cc2)cc1" is less than 4?
Reply | false

Ask | Is it true that logP reported for "CC(=O)Nc1ccc(O)cc1OC[C@@](C)(O)CNC1CCN(Cc2ccc(Cl)cc2)CC1" is less than 4?
Reply | true
